- assay-system: UniProtKB P51532
- protocol-description: HiBit assay in engineered HT1080 CRISPR knock-in cell, 6 hrs (B series), SMARCA4
- Type: cell-based
- assay-context: HT-1080, HT1080 CRISPR knock-in cells, 6 hrs incubation; read-out: SMARC A4 HT1080 HiBit Dmax(%)
readout-type: Dmax

Answered cases to consult:
compound	Dmax
Cc1ncsc1-c1ccc([C@H](CCCCCN2CCC(c3ccc4c(c3)-n3c(nc(=O)c5c(Cl)cccc53)C4(C)C)CC2)NC(=O)[C@@H]2C[C@@H](O)CN2C(=O)[C@@H](NC(=O)C2(F)CC2)C(C)(C)C)cc1	> 90%
Cc1ncsc1-c1ccc([C@H](C)NC(=O)[C@@H]2C[C@@H](O)CN2C(=O)[C@@H](NC(=O)CCCCN2CCC(c3ccc4c(c3)-n3c(nc(=O)c5c(Cl)cccc53)C4(C)C)CC2)C(C)(C)C)cc1	< 50%
Cc1ncsc1-c1ccc(CNC(=O)[C@@H]2C[C@@H](O)CN2C(=O)[C@@H](NC(=O)C2(F)CC2)C(C)(C)C)c(OCCCN2CCC(c3ccc4c(c3)-n3c(nc(=O)c5c(Cl)cccc53)C4(C)C)CC2)c1	> 90%

Ask: Quick one: Dmax for Cc1ncsc1-c1ccc([C@H](C)NC(=O)[C@@H]2C[C@@H](O)CN2C(=O)[C@H](C(C)C)n2cc(OCCN3CCC(c4ccc5c(c4)C(C)(C)c4nc(=O)c6c(Cl)cccc6n4-5)CC3)cn2)cc1 ?
Reply: < 50%

Ask: Moving on to Cc1ncsc1-c1ccc([C@H](C)NC(=O)[C@@H]2C[C@@H](O)CN2C(=O)[C@@H](NC(=O)[C@H]2CC[C@H](CN3CCC(c4ccc5c(c4)C(C)(C)c4nc(=O)c6c(Cl)cccc6n4-5)CC3)CC2)C(C)(C)C)cc1
Reply: 50 to 69%

###

- assay-system: SMARCA4 (Homo sapiens)
- Sequence (P51532 whole entry): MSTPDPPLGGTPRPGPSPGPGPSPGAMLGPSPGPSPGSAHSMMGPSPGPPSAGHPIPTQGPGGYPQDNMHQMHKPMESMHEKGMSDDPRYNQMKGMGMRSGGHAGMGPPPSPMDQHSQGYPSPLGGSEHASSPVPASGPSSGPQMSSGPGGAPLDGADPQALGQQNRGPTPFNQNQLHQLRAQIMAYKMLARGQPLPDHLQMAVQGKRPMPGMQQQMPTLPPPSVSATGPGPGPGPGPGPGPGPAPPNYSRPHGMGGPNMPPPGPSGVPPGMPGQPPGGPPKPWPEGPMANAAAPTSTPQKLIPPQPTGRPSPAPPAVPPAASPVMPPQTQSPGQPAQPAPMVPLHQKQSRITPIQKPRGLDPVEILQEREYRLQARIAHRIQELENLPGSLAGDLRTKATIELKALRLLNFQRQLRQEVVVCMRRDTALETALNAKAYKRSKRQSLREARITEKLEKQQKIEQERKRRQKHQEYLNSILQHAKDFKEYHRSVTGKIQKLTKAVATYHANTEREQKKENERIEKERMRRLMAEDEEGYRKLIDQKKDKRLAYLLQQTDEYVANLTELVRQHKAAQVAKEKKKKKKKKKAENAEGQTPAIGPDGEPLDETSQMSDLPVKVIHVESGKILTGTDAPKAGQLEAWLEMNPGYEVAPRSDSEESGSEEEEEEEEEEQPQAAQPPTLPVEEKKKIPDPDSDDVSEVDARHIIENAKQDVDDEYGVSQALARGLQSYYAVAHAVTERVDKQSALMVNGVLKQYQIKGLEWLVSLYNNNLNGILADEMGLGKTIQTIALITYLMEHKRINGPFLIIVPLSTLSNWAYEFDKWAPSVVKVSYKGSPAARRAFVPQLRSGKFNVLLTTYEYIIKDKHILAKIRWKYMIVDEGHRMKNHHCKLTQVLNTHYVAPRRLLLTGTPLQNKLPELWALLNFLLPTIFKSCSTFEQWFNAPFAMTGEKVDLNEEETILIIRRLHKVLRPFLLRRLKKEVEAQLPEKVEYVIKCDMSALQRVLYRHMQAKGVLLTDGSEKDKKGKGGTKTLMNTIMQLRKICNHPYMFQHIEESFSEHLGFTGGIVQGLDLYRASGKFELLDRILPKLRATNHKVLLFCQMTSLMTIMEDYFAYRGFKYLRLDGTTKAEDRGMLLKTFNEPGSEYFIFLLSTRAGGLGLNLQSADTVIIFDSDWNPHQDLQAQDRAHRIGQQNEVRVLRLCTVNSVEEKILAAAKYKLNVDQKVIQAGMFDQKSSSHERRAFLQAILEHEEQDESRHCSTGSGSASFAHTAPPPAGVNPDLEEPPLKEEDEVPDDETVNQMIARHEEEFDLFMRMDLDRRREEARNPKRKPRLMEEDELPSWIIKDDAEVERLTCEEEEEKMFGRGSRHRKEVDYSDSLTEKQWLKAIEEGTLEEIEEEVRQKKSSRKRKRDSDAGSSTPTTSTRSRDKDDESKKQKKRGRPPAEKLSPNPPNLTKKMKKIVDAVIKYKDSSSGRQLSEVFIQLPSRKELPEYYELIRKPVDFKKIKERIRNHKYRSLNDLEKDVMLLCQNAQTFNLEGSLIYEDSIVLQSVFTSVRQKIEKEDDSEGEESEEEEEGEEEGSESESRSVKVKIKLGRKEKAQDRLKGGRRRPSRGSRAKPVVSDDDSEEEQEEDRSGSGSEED
- protocol-description: HiBit assay in engineered HT1080 CRISPR knock-in cell, 6 hrs (B series), SMARCA4
- Type: cell-based
- assay-context: HT-1080, HT1080 CRISPR knock-in cells, 6 hrs incubation; read-out: SMARC A4 HT1080 HiBit Dmax(%)
- Method: The HiBit assay was performed using engineered HT1080 CRISPR knock-in cell utilizing the Nano-Glo HiBiT Lytic Detection System from Promega, Cat #N3040. Compounds were transferred, 25 nL DMSO or test compounds (final DMSO @ 0.1%) to intermediate plates (Corning3570) using ECHO550. […] After briefly centrifugation (2000 rpm 1 mins), plate was read on Envision (Ultrasensitive luminescence model).
readout-type: Dmax

Look over these answered cases.
chemical-smiles	Dmax
Cc1ncsc1-c1ccc([C@H](C)NC(=O)[C@@H]2C[C@@H](O)CN2C(=O)[C@@H](NC(=O)CCCCn2cc(-c3ccc4c(c3)C(C)(C)c3nc(=O)c5c(Cl)cccc5n3-4)cn2)C(C)(C)C)cc1	< 50%
Cc1ncsc1-c1ccc([C@H](C)NC(=O)[C@@H]2C[C@@H](O)CN2C(=O)[C@@H](n2cc(CN3CCC(c4ccc5c(c4)-n4c(nc(=O)c6c(Cl)cccc64)C5(C)C)CC3)nn2)C(C)(C)C)cc1	< 50%
Cc1ncsc1-c1ccc([C@H](CCCCCN2CCC(c3ccc4c(c3)C(C)(C)c3nc(=O)c5c(Br)cccc5n3-4)CC2)NC(=O)[C@@H]2C[C@@H](O)CN2C(=O)[C@@H](NC(=O)C2(C#N)CC2)C(C)(C)C)cc1	> 90%

Ask: Could you tell me which Dmax is on file for Cc1nc(C)c(-c2ccc([C@H](C)NC(=O)[C@@H]3C[C@@H](O)CN3C(=O)[C@@H](n3cc([C@H]4CC[C@H](CN5CCN(c6ccc7c(c6)-n6c(nc(=O)c8c(Cl)cccc86)C7(C)C)CC5)CC4)nn3)C(C)(C)C)cc2)s1 ?
Reply: 70 to 90%

###

- assay-system: SMARCA4 (Homo sapiens)
- protocol-description: HiBiT assay for protein degradation, Hela SMARCA4-HiBiT cells (A series)
- Type: cell-based
- Design: fuse HiBiT to the carboxy terminus of SMARCA2 (Promega CS302365) or SMARCA4 (Promega CS3023225); host or cells: HeLa (CRISPR/Cas9 HiBiT knock-in)
- assay-context: Hela SMARCA4-HiBiT cells, 24 hours treatment; read-out: SMARC A4 Hela HiBit DC50
Quick reference for DC50 among some molecules

Illustrative cases are given below, each with its answer.
chemical-smiles	DC50
Cc1ncsc1-c1ccc([C@H](CN2CCOCC2)NC(=O)[C@@H]2C[C@@H](O)CN2C(=O)[C@@H](n2cc([C@H]3CC[C@H](CN4CCC(c5ncc6c(n5)-n5c(nc(=O)c7c(Br)cccc75)C65CCCCC5)CC4)CC3)nn2)C(C)(C)C)cc1	> 1000 nM
Cc1ncsc1-c1ccc(CNC(=O)[C@@H]2C[C@@H](O)CN2C(=O)[C@@H](n2cc([C@H]3CC[C@H](CN4CCC(c5ccc6c(c5)-n5c(nc(=O)c7c(Br)cccc75)C65CCCCC5)CC4)CC3)nn2)C(C)(C)C)cc1	< 100 nM
CC(C)(C)[C@H](NC(=O)C1(F)CC1)C(=O)N1C[C@H](O)C[C@H]1C(=O)N[C@@H](CCCCCN1CCC(c2ccc3c(c2)C2(CCCCC2)c2nc(=O)c4c(Br)cccc4n2-3)CC1)c1ccc(Cl)cc1	> 1000 nM

Ask: Need DC50, item Cc1ncsc1-c1ccc([C@H](CN2CCOCC2)NC(=O)[C@@H]2C[C@@H](O)CN2C(=O)[C@@H](n2cc([C@H]3CC[C@H](CN4CCC(c5ccc6c(c5)-n5c(nc(=O)c7c(Cl)cccc75)C65CCCCC5)CC4)CC3)nn2)C(C)(C)O)cc1
Reply: > 1000 nM

Ask: Follow-up entry: Cc1ncsc1-c1ccc([C@H](C)NC(=O)[C@@H]2C[C@@H](O)CN2C(=O)[C@H](C2CCN(C(=O)[C@H]3CC[C@H](CN4CCC(c5ccc6c(c5)-n5c(nc(=O)c7c(Br)cccc75)C65CCCCC5)CC4)CC3)CC2)n2cc(C3CC3)nn2)cc1
Reply: > 1000 nM

Ask: Another molecule: CC(C)(C)[C@@H](C(=O)N1C[C@H](O)C[C@H]1C(=O)N[C@@H](CN1CCOCC1)c1ccc(-c2ccccc2F)cc1)n1cc([C@H]2CC[C@H](CN3CCC(c4ccc5c(c4)-n4c(nc(=O)c6c(Cl)cccc64)C54CCCCC4)CC3)CC2)nn1
Reply: 100 to 1000 nM

Ask: What do you have for Cc1ncsc1-c1ccc([C@H](CN2CCOCC2)NC(=O)[C@@H]2C[C@@H](O)CN2C(=O)[C@@H](NC(=O)[C@H]2CC[C@H](CN3CCC(c4ccc5c(c4)C4(CCCCC4)c4nc(=O)c6c(Br)cccc6n4-5)CC3)CC2)C(C)(C)C)cc1 ?
Reply: 501 to 1000 nM

Ask: What do we get for Cc1ncsc1-c1ccc([C@H](CN2CC3(COC3)C2)NC(=O)[C@@H]2C[C@@H](O)CN2C(=O)[C@@H](n2cc([C@H]3CC[C@H](CN4CCC(c5ccc6c(c5)-n5c(nc(=O)c7c(Cl)cccc75)C65CCCCC5)CC4)CC3)nn2)C(C)(C)C)cc1 ?
Reply: > 1000 nM

###

- assay-system: SMARCA4 (Homo sapiens)
- protocol-description: HiBiT assay for protein degradation, Hela SMARCA4-HiBiT cells (A series)
- Assay type: cell-based
- Parameters: fuse HiBiT to the carboxy terminus of SMARCA2 (Promega CS302365) or SMARCA4 (Promega CS3023225); host or cells: HeLa (CRISPR/Cas9 HiBiT knock-in)
- assay-context: Hela SMARCA4-HiBiT cells, 24 hours treatment; read-out: SMARC A4 Hela HiBit Dmax
readout-type: Dmax

chemical-smiles	Dmax
Cc1ncsc1-c1ccc([C@H](CN2CCOCC2)NC(=O)[C@@H]2C[C@@H](O)CN2C(=O)[C@@H](n2cc([C@H]3CC[C@H](CN4CCC(c5ccc6c(c5)-n5c(nc(=O)c7c(Cl)cccc75)C65CCCCC5)CC4)CC3)nn2)C(C)(C)O)cc1	50 to 69%

Lab note: next molecule to report on.
Ask: Tell me reported Dmax for COCCOC[C@H](NC(=O)[C@@H]1C[C@@H](O)CN1C(=O)[C@@H](n1cc([C@H]2CC[C@H](CN3CCC(c4ccc5c(c4)-n4c(nc(=O)c6c(Cl)cccc64)C54CCCCC4)CC3)CC2)nn1)C(C)(C)C)c1ccc(-c2scnc2C)cc1 , tested with SMARCA4 (Homo sapiens).
Reply: 50 to 69%

###

- assay-system: SMARCA2 (Homo sapiens)
- Sequence (P51531 whole entry): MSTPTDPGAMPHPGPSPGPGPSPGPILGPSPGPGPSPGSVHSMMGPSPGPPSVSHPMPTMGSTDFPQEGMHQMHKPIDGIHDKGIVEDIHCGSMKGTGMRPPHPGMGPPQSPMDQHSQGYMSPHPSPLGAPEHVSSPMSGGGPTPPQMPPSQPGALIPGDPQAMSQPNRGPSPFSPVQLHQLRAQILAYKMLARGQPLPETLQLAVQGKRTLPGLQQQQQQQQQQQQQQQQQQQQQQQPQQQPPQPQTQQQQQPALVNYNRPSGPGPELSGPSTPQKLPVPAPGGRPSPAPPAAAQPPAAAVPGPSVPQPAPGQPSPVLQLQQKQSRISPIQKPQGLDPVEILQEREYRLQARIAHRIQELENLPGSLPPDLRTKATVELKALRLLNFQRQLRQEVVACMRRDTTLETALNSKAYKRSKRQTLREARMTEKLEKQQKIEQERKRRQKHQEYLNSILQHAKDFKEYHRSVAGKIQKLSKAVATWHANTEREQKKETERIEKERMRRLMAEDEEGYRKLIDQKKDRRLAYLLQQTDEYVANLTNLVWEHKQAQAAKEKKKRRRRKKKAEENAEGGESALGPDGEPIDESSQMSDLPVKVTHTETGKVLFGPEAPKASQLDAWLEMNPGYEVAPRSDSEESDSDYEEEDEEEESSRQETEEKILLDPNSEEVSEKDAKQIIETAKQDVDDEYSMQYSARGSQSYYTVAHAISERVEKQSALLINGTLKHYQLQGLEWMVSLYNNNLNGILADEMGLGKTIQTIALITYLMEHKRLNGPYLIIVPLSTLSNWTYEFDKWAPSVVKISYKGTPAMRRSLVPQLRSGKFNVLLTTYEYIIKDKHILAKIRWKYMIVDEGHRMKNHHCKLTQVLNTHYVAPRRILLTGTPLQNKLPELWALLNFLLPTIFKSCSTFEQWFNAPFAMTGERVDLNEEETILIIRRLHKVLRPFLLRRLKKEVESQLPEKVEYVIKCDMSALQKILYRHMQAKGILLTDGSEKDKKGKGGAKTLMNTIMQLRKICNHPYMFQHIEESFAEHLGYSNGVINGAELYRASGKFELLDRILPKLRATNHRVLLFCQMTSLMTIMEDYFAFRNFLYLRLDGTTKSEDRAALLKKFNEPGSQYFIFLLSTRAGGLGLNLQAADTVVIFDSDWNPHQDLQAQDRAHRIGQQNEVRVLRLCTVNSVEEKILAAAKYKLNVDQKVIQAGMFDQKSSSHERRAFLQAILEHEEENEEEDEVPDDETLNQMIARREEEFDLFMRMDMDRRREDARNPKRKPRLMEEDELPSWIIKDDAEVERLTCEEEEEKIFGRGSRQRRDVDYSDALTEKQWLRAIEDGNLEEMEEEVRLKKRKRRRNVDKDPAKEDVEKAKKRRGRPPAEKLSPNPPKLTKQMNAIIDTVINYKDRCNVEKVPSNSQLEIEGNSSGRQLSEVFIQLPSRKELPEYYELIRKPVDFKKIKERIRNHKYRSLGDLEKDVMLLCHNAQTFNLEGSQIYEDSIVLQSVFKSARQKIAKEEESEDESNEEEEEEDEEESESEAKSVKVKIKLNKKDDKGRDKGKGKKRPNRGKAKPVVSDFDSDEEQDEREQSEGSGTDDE
- protocol-description: HiBit assay in engineered HT1080 CRISPR knock-in cell, 6 hrs (B series), SMARCA2
- Format: cell-based
- assay-context: HT1080 CRISPR knock-in cells, 6 hrs incubation; read-out: SMARC A2 HT1080 HiBit DC50
# maps each entry to its DC50

Answered cases to consult:
compound	DC50
Cc1ncsc1-c1ccc([C@H](C)NC(=O)[C@@H]2C[C@@H](O)CN2C(=O)C(c2cc(CCN3CCC(c4ccc5c(c4)C(C)(C)c4nc(=O)c6c(Cl)cccc6n4-5)CC3)no2)C(C)C)cc1 (stereo partly drawn) [Compound B15]	< 100 nM
Cc1ncsc1-c1ccc([C@H](C)NC(=O)[C@@H]2C[C@@H](O)CN2C(=O)[C@@H](c2cc(OCCn3cc(-c4ccc5c(c4)-n4c(nc(=O)c6c(Cl)cccc64)C5(C)C)cn3)no2)C(C)C)cc1 [Compound B60]	< 100 nM
Cc1cc(C(C(=O)N2C[C@H](O)C[C@H]2C(=O)N[C@@H](C)c2ccc(-c3scnc3C#CCOCCCN3CCC(c4ccc5c(c4)-n4c(nc(=O)c6c(Cl)cccc64)C5(C)C)CC3)cc2)C(C)C)on1 (stereo partly drawn) [Compound B103]	< 100 nM
Cc1ncsc1-c1ccc([C@H](C)NC(=O)[C@@H]2C[C@@H](O)CN2C(=O)[C@@H](c2cc(OCCCn3cc(-c4ccc5c(c4)-n4c(nc(=O)c6c(Cl)cccc64)C5(C)C)cn3)no2)C(C)C)cc1 [Compound B72]	< 100 nM
Cc1ncsc1-c1ccc([C@H](CN2CCOCC2)NC(=O)[C@@H]2C[C@@H](O)CN2C(=O)[C@@H](n2cc([C@H]3CC[C@H](CN4CCC(c5ccc6c(c5)-n5c(nc(=O)c7c(Br)cccc75)C65CCCCC5)CC4)CC3)nn2)C(C)(C)C)cc1 [Compound B112]	< 100 nM
Cc1cc(C(C(=O)N2C[C@H](O)C[C@H]2C(=O)N[C@@H](C)c2ccc(-c3scnc3C#CCN3CCC(c4cccc5c4C(C)(C)c4nc(=O)c6c(Cl)cccc6n4-5)CC3)cc2)C(C)C)on1 (stereo partly drawn) [Compound B150]	< 100 nM
Cc1ncsc1-c1ccc([C@H](CCCCCN2CCC(c3ccc4c(c3)-n3c(nc(=O)c5c(Cl)cccc53)C4(C)C)CC2)NC(=O)[C@@H]2C[C@@H](O)CN2C(=O)[C@@H](NC(=O)C2(F)CC2)C(C)(C)C)cc1 [Compound B21]	< 100 nM
Cc1ncsc1-c1ccc([C@H](C)NC(=O)[C@@H]2C[C@@H](O)CN2C(=O)[C@@H](n2cc(-c3cccc(CN4CCC(c5ccc6c(c5)-n5c(nc(=O)c7c(Cl)cccc75)C6(C)C)CC4)c3)nn2)C(C)(C)C)cc1 [Compound B119]	< 100 nM

Could you now consider this next compound?
Ask: If you can, please state the reported DC50 value of Cc1ncsc1-c1ccc([C@H](CN2CCOCC2)NC(=O)[C@@H]2C[C@@H](O)CN2C(=O)[C@H](c2cc(N3CCC(c4ccc5c(c4)C(C)(C)c4nc(=O)c6c(Cl)cccc6n4-5)CC3)no2)C(C)C)cc1 [Compound B109] .
Reply: < 100 nM
